The reported measurements were obtained from paper PMC12416549.

# target: T1, TNFR1 (Homo sapiens, UniProt P19438)
# T1 chain: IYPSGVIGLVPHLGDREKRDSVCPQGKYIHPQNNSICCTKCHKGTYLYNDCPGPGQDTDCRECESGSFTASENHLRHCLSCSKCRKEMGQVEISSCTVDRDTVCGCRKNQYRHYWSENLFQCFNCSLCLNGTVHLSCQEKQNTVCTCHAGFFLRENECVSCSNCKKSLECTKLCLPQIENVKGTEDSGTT
# protocol.details: yeast display SC50
measurement.label: apparent Kd (screen) (nM)
Reply with just the number (in nM).

L93T (designed binder) MTLQELLREEALRRAEAEAFRYALELLAEKFPEQKEYLLDLAEEIESQIRSLSGVDVEDVRKFLDKEWAWVKELLAEHPAELAEVEAARAARTAELRAEVEAKVAA : 0.653

Next binder, apparent Kd (screen) to be filled in.
*Q* Please give the measured apparent Kd (screen) for this binder: L74Q (designed binder) MTLQELLREEALRRAEAEAFRYALELLAEKFPEQKEYLLDLAEEIESQIRSLSGVDVEDVRKFLDKEWAWVKEQLAEHPAELAEVEAARAARLAELRAEVEAKVAA
*A* 1.54
